# System: ISC-enriched organoids
# procedure-details: Primary screen, 384-well 2.5-D organoid differentiation (ENR+CD, 6 days, Target Selective Inhibitor Library, vs whole-plate median): ATP (CellTiter-Glo 3D, CTG)
# condition: primary screen, dose 0.40 uM, standard z score of FC
experimental-readout: Z.CTG

- COc1ccc2cccc(CCNC(C)=O)c2c1: 0.193
- CC(C)c1c(C(=O)Nc2ccccc2)c(-c2ccccc2)c(-c2ccc(F)cc2)n1CC[C@@H](O)C[C@@H](O)CC(=O)[O-].CC(C)c1c(C(=O)Nc2ccccc2)c(-c2ccccc2)c(-c2ccc(F)cc2)n1CC[C@@H](O)C[C@@H](O)CC(=O)[O-].[Ca+2]: −0.831
- CCOC(=O)[C@H]1O[C@@H]1C(=O)N[C@@H](CC(C)C)C(=O)NCCC(C)C: −0.014
- CC(C)(C#N)c1cc(Cn2cncn2)cc(C(C)(C)C#N)c1: 0.057
- O=C(O)c1ccc(N2C(=O)/C(=C\c3ccc(-c4ccc([N+](=O)[O-])cc4)o3)C=C2c2ccccc2)cc1: 0.864
- Cc1ccccc1C(C(=O)NC1CCCCC1)N(C(=O)Cn1ccnc1C)c1cccc(F)c1 (centres unmarked): 0.368
- C=CCNC1=C2C[C@@H](C)C[C@H](OC)[C@H](O)[C@@H](C)/C=C(\C)[C@H](OC(N)=O)[C@@H](OC)/C=C\C=C(/C)C(=O)NC(=CC1=O)C2=O: −3.015
- Oc1ncnc2[nH]ncc12: −0.234

====

# System: ISC-enriched organoids
# procedure-details: Primary screen, 384-well 2.5-D organoid differentiation (ENR+CD, 6 days): basal lysozyme secretion (LYZ.NS)
# Type: cell-based, murine
# condition: Dose 2.00 uM; primary screen, vs plate median
// reported Dose.FC.LYZ.NS (log 2 fold change) for each item listed
experimental-readout: Dose.FC.LYZ.NS (log 2 fold change)

- Cl.NC(=O)c1cnc(N[C@@H]2CCCC[C@@H]2N)nc1Nc1cccc(-n2nccn2)c1 [PRT062607 (P505-15, BIIB057) HCl]: −0.032
- O=C1CC(=O)c2c(Cl)c(Cl)c(Cl)c(Cl)c21: 0.066
- Cc1ccc(C(=O)N(CCCN)[C@@H](c2oc3cc(Cl)ccc3c(=O)c2Cc2ccccc2)C(C)C)cc1: −0.264
- CO[C@H]1C[C@@H]2CC[C@@H](C)[C@@](O)(O2)C(=O)C(=O)N2CCCC[C@H]2C(=O)O[C@H]([C@H](C)C[C@@H]2CC[C@@H](OC(=O)C(C)(CO)CO)[C@H](OC)C2)CC(=O)[C@H](C)/C=C(\C)[C@@H](O)[C@@H](OC)C(=O)[C@H](C)C[C@H](C)/C=C/C=C/C=C/1C: 0.172

====

Recorded Z.CTG for the following compounds
# Tested on: ISC-enriched organoids
# procedure-details: Primary screen, 384-well 2.5-D organoid differentiation (ENR+CD, 6 days, Target Selective Inhibitor Library, vs whole-plate median): ATP (CellTiter-Glo 3D, CTG)
# condition: Dose 2.00 uM; standard z score of FC
experimental-readout: Z.CTG

- Nc1cccc2c1C(=O)N(C1CCC(=O)NC1=O)C2=O (stereo not drawn) [Pomalidomide]: −0.517
- O=C(NCCN1CCOCC1)c1ccc(Cl)cc1 [Moclobemide (Ro 111163)]: 0.276
- Cc1[nH]c2ccccc2c1CCNC(=O)c1cccs1 [CK-636]: −0.479

====

# Test system: ISC-enriched organoids
# procedure-details: Primary screen, 384-well 2.5-D organoid differentiation (ENR+CD, 6 days): carbachol-induced lysozyme secretion (LYZ.S)
# Format: cell-based, murine
# condition: Dose 2.00 uM; ENR+CD, 6 days; FC vs plate median
Lab note: anything with Dose.FC.LYZ.S at or over 0.01 log 2 fold change counts as Condition met; the rest go in Condition not met.

- CC(C)(C)c1nc(-c2cccc(NS(=O)(=O)c3c(F)cccc3F)c2F)c(-c2ccnc(N)n2)s1: Condition met
- CC(C)NC[C@@H](C(=O)N1CCN(c2ncnc3c2[C@H](C)C[C@H]3O)CC1)c1ccc(Cl)cc1: Condition not met
- CCOC(=O)c1cncn1[C@H](C)c1ccccc1 [Etomidate]: Condition met
- O=C(O)c1cc2cccc([N+](=O)[O-])c2[nH]1: Condition met
- COc1ccc(C[C@@H](C)NC[C@H](O)c2ccc(O)c(NC=O)c2)cc1.COc1ccc(C[C@@H](C)NC[C@H](O)c2ccc(O)c(NC=O)c2)cc1.O=C(O)/C=C/C(=O)O [Formoterol Hemifumarate]: Condition met
- CN[C@@H](C)C(=O)N[C@H](C(=O)N1CCC[C@H]1C(=O)Nc1snnc1-c1ccccc1)C1CCCCC1: Condition not met
- CNC(=O)c1ccc(N2C(=S)N(c3ccc(C#N)c(C(F)(F)F)c3)C(=O)C2(C)C)cc1F [Enzalutamide (MDV3100)]: Condition met
- CNC(=O)c1cc(Oc2ccc(NC(=O)Nc3cc(C(C)(C)C)nn3-c3ccc4ncccc4c3)c(F)c2)ccn1 [DCC-2036 (Rebastinib)]: Condition met
- CCn1c2ccccc2c2cc(Nc3ccnc(NCCCN4CCOCC4)n3)ccc21: Condition not met

====

# System: ISC-enriched organoids
# procedure-details: Primary screen, 384-well 2.5-D organoid differentiation (ENR+CD, 6 days): carbachol-induced lysozyme secretion (LYZ.S)
# Assay type: cell-based, murine
# condition: standard z score; primary screen; 3rd of the 4 dose lines of the treatment (dose not given)
experimental-readout: Z.LYZ.S

* CC(C)c1ccc(NC(=O)Cn2cnc3c2c(=O)n(C)c(=O)n3C)cc1 | −0.225
* Cc1ccccc1C(=O)Nc1ccc(C(=O)N2CCCC(N(C)C)c3ccccc32)cc1 (centres unmarked) | 0.688
* Nc1cccc2c1CN(C1CCC(=O)NC1=O)C2=O (centres unmarked) [Lenalidomide (CC-5013)] | 0.162
* CCN1CCC[C@H]1CNC(=O)c1cc(S(N)(=O)=O)ccc1OC [Levosulpiride] | 0.800
* C[C@](O)(COc1ccc(C#N)cc1)C(=O)Nc1ccc(C#N)c(C(F)(F)F)c1 | 0.506
* C=CCn1c(=O)c2cnc(Nc3ccc(N4CCN(C)CC4)cc3)nc2n1-c1cccc(C(C)(C)O)n1 | −1.345
* O=c1cc(-c2cccc3c2Sc2ccccc2S3)oc(N2CCOCC2)c1 | 1.043
* O=C(c1ccc(Nc2nccc(-c3cc4ccccc4s3)n2)cc1)N1CCC(N2CCCC2)CC1 | −0.918

====

# Tested on: ISC-enriched organoids
# procedure-details: Primary screen, 384-well 2.5-D organoid differentiation (ENR+CD, 6 days): basal lysozyme secretion (LYZ.NS)
# Assay type: cell-based, murine
# condition: Dose 10.00 uM; standard z score of FC
The threshold is inclusive: Z.LYZ.NS of exactly -2 counts as 1; values below receive -1.

* CN(c1ncccc1CNc1nc(Nc2ccc3c(c2)CC(=O)N3)ncc1C(F)(F)F)S(C)(=O)=O | -1
* CCCCCCCCCCCCCCCCn1cc[n+](Cc2ccccc2)c1C.[I-] | -1
* NCC(=O)Nc1ccc(-n2nc(C(F)(F)F)cc2-c2ccc3c(ccc4ccccc43)c2)cc1 | 1
* O=C(NOCC1CC1)c1ccc(F)c(F)c1Nc1ccc(I)cc1Cl | 1
* CCCC(C)NC(=O)c1ccc(Cl)c(Cl)c1 (stereo not drawn) | 1

====

# Test system: ISC-enriched organoids
# procedure-details: Primary screen, 384-well 2.5-D organoid differentiation (ENR+CD, 6 days, Target Selective Inhibitor Library, vs whole-plate median): ATP (CellTiter-Glo 3D, CTG)
# condition: Dose 0.08 uM; ENR+CD, 6 days; FC vs plate median
experimental-readout: Dose.FC.CTG (log 2 fold change)

• CO[C@H]1C[C@@H]2CC[C@@H](C)[C@@](O)(O2)C(=O)C(=O)N2CCCC[C@H]2C(=O)O[C@H]([C@H](C)C[C@@H]2CC[C@@H](OCCO)[C@H](OC)C2)CC(=O)[C@H](C)/C=C(\C)[C@@H](O)[C@@H](OC)C(=O)[C@H](C)C[C@H](C)/C=C/C=C/C=C/1C [Everolimus (RAD001)] = 0.392
• CC(C)NC[C@@H](C(=O)N1CCN(c2ncnc3c2[C@H](C)C[C@H]3O)CC1)c1ccc(Cl)cc1 = 0.042
• CC1(COc2ccc3c(c2)ncn3-c2ccc3cccc(N4CCC(N)CC4)c3n2)COC1 = −0.069

====

Dose.FC.CTG by entry:
# System: ISC-enriched organoids
# procedure-details: Primary screen, 384-well 2.5-D organoid differentiation (ENR+CD, 6 days, Target Selective Inhibitor Library, vs whole-plate median): ATP (CellTiter-Glo 3D, CTG)
# condition: Dose 2.00 uM; primary screen, FC vs plate median
experimental-readout: Dose.FC.CTG (log 2 fold change)

* COc1cc(OC)c(NC(=O)Nc2cc(C)on2)cc1Cl | 0.114
* O=c1cc(-c2cccc3c2Sc2ccccc2S3)oc(N2CCOCC2)c1 | 0.551
* CCCC(=O)Nc1cccc(NC(=O)c2ccccc2Br)c1 | 0.066
* CNC(=O)[C@H](Cc1c[nH]c2ccccc12)NC(=O)[C@@H](CC(=O)NO)CC(C)C | 0.091
